- assayed-target: T1, Claudin18.2 on cells (human, UniProt P56856-2 1-261)
- T1 construct: whole, on cells; the cell line of each result is named under assay or readout
- protocol-description: flow cytometry on 293T-Claudin18.2 cells, antibody at 0.75 µg/mL
Task for the reader: assign each of the following binders its reported mean fluorescence intensity.
One number for each entry.

Look over these answered cases.
Item: CLD389-CA802-IgG1 (antibody, V domains shown, Complete IgG1 made in HEK293 cells) VH: QVQLVESGGGVVQPGRSLRLSCAASGFTFSSYAMHWVRQVPGKGLEWVAIISYDGSIKYYADSVKGQFTISRDNSKNTLSLQMNSLRPEDTAVYYCARDPTMVRGVRGMDVWGQGTTVTVSS VL: DIQMTQSPSSLSASVGDRVTITCRASQGIRNDLGWYQQKPGKAPKLLIYAASSLQSGVPSRFSGSGSGTDFTLTISSLQPEDFATYYCLQDYNYPLTFGGGTKLEIKR | mean fluorescence intensity: 774000

Item: IMAB362 (antibody, human IgG1, kappa, V domains shown) VH: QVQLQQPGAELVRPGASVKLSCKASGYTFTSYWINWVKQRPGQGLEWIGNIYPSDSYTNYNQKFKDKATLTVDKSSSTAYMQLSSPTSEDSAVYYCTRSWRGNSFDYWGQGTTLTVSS VL: DIVMTQSPSSLTVTAGEKVTMSCKSSQSLLNSGNQKNYLTWYQQKPGQPPKLLIYWASTRESGVPDRFTGSGSGTDFTLTISSVQAEDLAVYYCQNDYSYPFTFGSGTKLEIKR | mean fluorescence intensity: 689000

Item: CLDQ1-CA841-IgG1 (antibody, V domains shown, Complete IgG1 made in HEK293 cells) VH: QVQLVQSGAEVKKPGSSVKVSCKASGGTFSSYAISWVRQAPGQGLEWMGRIIPILGIANYAQKFQGRVTVTADKSTSTAYMELSSLRSEDTAVYYCARERDNWDPYYYYYGMDVWGQGTTVTVSS VL: DIQMTQSPSTLSASVGDRVTITCRASQSINSWLAWYQQKPGKAPKLLIYKASSLESGVPSRFSGSGSGTEFTLTISSLQPDDFATYYCQQYNSFPLTFGGGTKVEIKR | mean fluorescence intensity: 583000

Item: CLD389-279-IgG1 (antibody, V domains shown, Complete IgG1 made in HEK293 cells; also called C279; CLD389-C279) VH: EVQLVQSGGGVVQPGRSLRLSCAASGFTFSNYAMHWVRQAPGKGLEWVAVISYDGSNKYYADSVKGRFTISRDNSKNTLYLQMNSLRAEDTAVYYCARELRFFDWLLGRAFDIWGQGTMVTVSS VL: EIVMTQSPPSLSASVGDRVTITCRASQGIRNDLGWYQQKPGKAPKLLIYAASSLQSGVPSRFSGSGSGTDFTLTISSLQPEDFATYYCLQDYNYPWTFGQGTKLEIKR | mean fluorescence intensity: 776000

Now look at this one.
Item: CLD389-CA852-IgG1 (antibody, V domains shown, Complete IgG1 made in HEK293 cells) VH: QVQLVESGGGVVQPGRSLRLSCAASGFTFSSYAMHWVRQAPGKGLEWVAVISYDGSKKYYADSVKGRFTISRDNSKNTLYLQMNSLRAEDTAVYYCARDPTMVRGVRGMDVWGQGTTVTVSS VL: EIVMTQSPSTLSASIGDRVTITCRASQGIRNDLGWYQQKPGKAPKLLIYAASSLQSGVPSRFSGSGSGTDFTLTISSLQPEDFATYYCLQDYNYPLTFGGGTKVEIKR | mean fluorescence intensity: 365000
